# procedure.details: Cytotoxicity against mouse BV2 cells assessed as cell viability at 20 uM by MTT assay relative to LPS-treated cells
# Type: cell-based, BV-2
# reported.conditions: read-out: Activity
Recorded viability at 20 µM for the following compounds
Report the value in % with no unit label.

Recorded viability at 20 µM, per entry:
O=c1c(O[C@@H]2O[C@H](CO)[C@@H](O)[C@H](O)[C@H]2O)c(-c2ccc(O)cc2)oc2cc(O[C@@H]3O[C@H](CO)[C@@H](O)[C@H](O)[C@H]3O)cc(O)c12 | 106
O=C(/C=C\c1ccc(O)cc1)O[C@H]1[C@H](Oc2c(-c3ccc(O[C@@H]4O[C@H](CO)[C@@H](O)[C@H](O)[C@H]4O)cc3)oc3cc(O[C@@H]4O[C@H](CO)[C@@H](O)[C@H](O)[C@H]4O)cc(O)c3c2=O)O[C@H](CO)[C@@H](O)[C@@H]1O [ALLIVICTOSIDE D] | 100

// sample O=c1c(O[C@@H]2O[C@H](CO)[C@@H](O)[C@H](O)[C@H]2O)c(-c2ccc(O)c(O)c2)oc2cc(O)cc(O)c12 [ISOQUERCETIN] , its viability at 20 µM was 97.3

The values you see were collected from ChEMBL document CHEMBL2203001.
